Here we list compounds with their recorded IC50 when tested on ICE (Homo sapiens).
Sequence (P29466 120-297 limits assumed): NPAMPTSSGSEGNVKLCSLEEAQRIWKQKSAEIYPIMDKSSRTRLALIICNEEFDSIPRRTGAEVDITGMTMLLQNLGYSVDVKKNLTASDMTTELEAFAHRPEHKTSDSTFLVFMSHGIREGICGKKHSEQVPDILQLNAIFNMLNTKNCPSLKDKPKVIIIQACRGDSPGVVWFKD
Sequence (P29466 317-404 limits assumed): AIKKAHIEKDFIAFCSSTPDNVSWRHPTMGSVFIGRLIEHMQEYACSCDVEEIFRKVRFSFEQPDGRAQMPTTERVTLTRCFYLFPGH
Assay readout: IC50 (nM)

[
  {
    "Compound": "CC(C)[C@H](CC(=O)NCCc1cn(C)c2ccccc12)C(=O)NC(CC(=O)O)C(=O)CNS(=O)(=O)CC12CCC(CC1)C2(C)C (stereo partly shown)",
    "Endpoint unit": "nM",
    "IC50": 48.3
  }
]

I: CC(C)C(CC(=O)NCCc1ccc2ccccc2c1)C(=O)NC(CC(=O)O)C(=O)CNS(=O)(=O)CC12CCC(CC1=O)C2(C)C (stereo not shown)
II: CCOC1OC(=O)CC1NC(=O)C(CC(=O)NCCNc1ccccc1)C(C)C (stereo not shown)
III: CC(C)C(CC(=O)N(C)CCc1cn(C)c2ccccc12)C(=O)NC(C=O)CC(=O)O (stereo not shown)
Inquiry: Ascending by IC50, please: list the compounds accordingly. Lab note: record answer as labels in requested order.
Reply text: I, III, II
(I: 89.4 nM, III: 130 nM, II: 2280 nM)
